Experiment: chemical genetic growth profiling, strain panel (AID 1159580);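 also: tested at 20 µM; growth read once vehicle control cultures reached saturation at 30 °C; 1 = growth at the plate median or of vehicle wells; lower values mean less growth of the strain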
Settings: S. cerevisiae deletion strains, growth OD, locus YOR083W, strain WHI5, active compounds read low
Among all 5,500 compounds or so, about 2,000 (36%) were called active. About 18% were inconclusive and are not listed. Some of the results follow.
ENDPOINT_NAME: normalized growth

In: Item under review: COc1cc(NS(C)(=O)=O)ccc1Cc1c2ccccc2nc2ccccc12 . Reported normalized growth?
Out: 0.934 (inactive)

In: May I ask what normalized growth has been recorded for CC(C)/C(O)=C1/C(=O)O[C@@H](c2ccoc2)[C@]2(C)C(O)[C@@H](O)[C@@]34OC5(C)OC67CC(C)(C(O)[C@]6(O)[C@@H](O)[C@]3(O5)C12)[C@H](CC(=O)O)[C@]74C (stereo partly drawn) ?
Out: 0.954 (inactive)

In: // returns reported normalized growth for input CC(=O)Oc1c2c(c3c(c1CC=C(C)C)O[C@]14C(=C[C@@H]5CC1C(C)(C)OC4(C/C=C(\C)C(=O)O)C5=O)C3=O)OC(C)(CCC=C(C)C)C=C2 (stereo partly drawn)
Out: 0.99 (inactive)

In: Which normalized growth value belongs to CC(=O)C1CC[C@H]2C3CC[C@H]4C[C@H](O)CC[C@]4(C)C3CC[C@]12C (stereo partly drawn) ?
Out: 0.984 (inactive)

In: I would be grateful if you could share the reported normalized growth for Cc1cc(CC(=O)O)n(C)c1C(=O)c1ccc(Cl)cc1 .
Out: 1.04 (inactive)

In: Need normalized growth, item NCCCNCCSP(=O)(O)O
Out: 0.96 (inactive)

In: Entry COC(=O)/C(C)=C\CC12OC(C)(C)C3CC(C=C4C(=O)c5c(OC)c6c(c(CC=C(C)C)c5OC431)OC(C)(CCC=C(C)C)C=C6)C2=O (stereo not drawn) : reported normalized growth = ?
Out: 0.99 (inactive)

In: Look at this molecule and give its reported normalized growth. CC(=O)OCC(=O)[C@@]1(O)CCC2C3CCC4=CC(=O)C=CC4(C)C3[C@@H](O)C[C@@]21C (stereo partly drawn)
Out: 0.965 (inactive)

###

Record form. Attribute: normalized growth. Fill in for each entry.
Experiment: chemical genetic growth profiling, strain panel (AID 1159580);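 also: tested at 20 µM; growth read once vehicle control cultures reached saturation at 30 °C; 1 = growth at the plate median or of vehicle wells; lower values mean less growth of the strain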
Settings: S. cerevisiae deletion strains, growth OD, locus YNL307C, strain MCK1 (second series), active compounds read low
In all, about 5,500 compounds went through this assay and about 2,000 (36%) were called active. Not shown: some 18% with an inconclusive outcome. Some of the results follow.

In: For the compound shown here, Nc1ccccc1C(=O)Nc1cc(C(F)(F)F)cc(C(F)(F)F)c1 , give the reported normalized growth.
Out: 0.941 (inactive)

In: # lookup: normalized growth of Cc1c(S(=O)(=O)Nc2cccc([N+](=O)[O-])c2)sc2ccc(Cl)cc12
Out: 0.988 (inactive)

In: Need normalized growth of Clc1cc(Cl)cc(C=NCc2ccccc2)c1 , thanks.
Out: 0.489 (active)

In: For the compound shown here, Brc1ccc(-c2csc(-c3cccnc3)n2)cc1 , give the reported normalized growth.
Out: 0.702 (inactive)

In: Consider the compound O=[N+]([O-])c1ccsc1Oc1cccc(C(F)(F)F)c1 and give its measured normalized growth.
Out: 0.939 (inactive)

In: Endpoint output: normalized growth of Cn1nccc1-c1cc(Cl)cc(Cl)c1O . Value?
Out: 0.798 (inactive)

In: GET /values?readout=normalized growth&item= CC1CCC(C(C)C)C(N(Cc2ccccc2)C(=O)c2ccccc2)C1 (configuration not stated)
Out: 0.898 (inactive)

In: Sample O=S(=O)(Nc1cc(Cl)c(Cl)cc1Cl)c1cc(C(F)(F)F)cc(C(F)(F)F)c1 — what was its normalized growth?
Out: 0.874 (inactive)

In: normalized growth for O=C(Oc1ccc2ccccc2c1C1SCCS1)c1ccc([N+](=O)[O-])o1 ?
Out: 0.901 (inactive)

In: Return reported normalized growth; argument: O=S(=O)(NCc1ccc(C(F)(F)F)cc1)c1cc(Br)c(Br)s1
Out: 0.846 (inactive)

In: Please report the recorded normalized growth for Clc1ccc(CSc2nccn2-c2cc(Cl)ccc2Cl)cc1 .
Out: 0.879 (inactive)

In: Could you tell me which normalized growth is on file for COc1ccc2c(c1)CCc1sc(NC(=O)c3ccco3)nc1-2 ?
Out: 0.94 (inactive)

In: Given the entry Cc1ccc(NC(=S)C(C#N)C(=O)N2CCOCC2)c(C)c1 (configuration not stated) , report its measured normalized growth.
Out: 1.02 (inactive)

In: Entry C/C(=N/NC(=S)NCC(C)(C)C)c1cc(F)cc(Cl)c1O : reported normalized growth = ?
Out: 0.883 (inactive)

In: Item Clc1cccc(Nc2ncc(-c3ccc4c(c3)OCCCO4)s2)c1 has what recorded normalized growth?
Out: 0.864 (inactive)

In: Given Cc1ccc(-c2nc(NS(=O)(=O)c3cccc4nonc34)sc2C)cc1Cl , state its recorded normalized growth.
Out: 0.984 (inactive)

In: # get_value(readout='normalized growth', item= Clc1ccccc1-c1csc(-c2cccnc2)n1 )
Out: 0.82 (inactive)

In: Bench note: what normalized growth did C[C@@H](Nc1ncnc2sc3c(c12)CCCC3)c1ccccc1 show?
Out: 0.912 (inactive)

In: Endpoint output: normalized growth of CCOC(=O)c1sc(S(C)=NC(=O)Nc2ccc(Cl)cc2)c2c1CCC=C2 (configuration not stated) . Value?
Out: 0.951 (inactive)

In: Fill blank: measured normalized growth of the compound O=S(=O)(NCc1ccc(C(F)(F)F)cc1)c1cccc(C(F)(F)F)c1 is ____.
Out: 0.954 (inactive)

In: Need normalized growth of N/C(=N/O)c1ccc(Oc2ccc(C3SCCS3)cc2)c([N+](=O)[O-])c1 , thanks.
Out: 1.02 (inactive)

In: Suppose we examine the compound CNC(=O)Sc1c(-c2ccc(Cl)cc2)nn(C(=O)NC)c1SC ; what normalized growth value has been reported?
Out: 0.233 (active)

In: Please look up its normalized growth: CC1=CC(=O)N(c2ccc(OC(F)(F)F)cc2)C1=O
Out: 0.413 (active)

In: Data request, read-out normalized growth, for Cc1ccccc1/C=C/c1c[nH]c2ccccc12
Out: 0.941 (inactive)

In: Dear colleague, I am looking for the recorded normalized growth of the following compound: O=S(=O)(Nc1csc(C(F)(F)F)c1-c1ccccc1)c1cc(Br)c(Br)s1
Out: 0.81 (inactive)

In: May I ask what normalized growth has been recorded for O=C(Nc1ccncc1)c1cc(-c2ccccc2)oc1C(F)(F)F ?
Out: 0.976 (inactive)

In: // normalized growth lookup, key: N#Cc1cccc(CSc2nc3ccc(C(F)(F)F)cc3[nH]2)c1
Out: 0.89 (inactive)

###

Please go through the items and note down their normalized growth.
Assay: chemical genetic growth profiling, strain panel (AID 1159580);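 also: tested at 20 µM; growth read once vehicle control cultures reached saturation at 30 °C; 1 = growth at the plate median or of vehicle wells; lower values mean less growth of the strain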
Details: S. cerevisiae deletion strains, growth OD, locus YPL051W, strain arl3, active compounds read low
Screen size: about 5,500 compounds; about 2,000 (36%) were called active. Not shown: some 18% with an inconclusive outcome. Some of the results follow.
Form rule: numeric answer, no unit written next to it.

In: Returns the measured normalized growth for the input molecule. Input: CC(=O)C1CCC2C3CCC4C[C@H](O)CCC4(C)C3C[C@H](O)C12C (stereo partly specified)
Out: 1

In: Need normalized growth of COC[C@]12CN(C=O)C3[C@@H]4[C@H](OC)C1[C@]3(C1CC3(O)C(OC)C(O)C4(OC(C)=O)C1C3OC(=O)c1ccccc1)[C@@H](OC)C[C@H]2O (stereo partly specified) , thanks.
Out: 1.01

In: Endpoint output: normalized growth of COP(=S)(OC)Oc1ccc(Sc2ccc(OP(=S)(OC)OC)cc2)cc1 . Value?
Out: 1.01

In: Which normalized growth reading was recorded for the molecule Clc1ccccc1CN1CCc2sccc2C1 ?
Out: 0.973

In: I have this molecule here, CC(=O)Oc1c2c(c3c(c1CC=C(C)C)O[C@]14C(=C[C@@H]5CC1C(C)(C)OC4(C/C=C(\C)C(=O)O)C5=O)C3=O)OC(C)(CCC=C(C)C)C=C2 (stereo partly specified) , and I need its recorded normalized growth.
Out: 0.914

In: // lookup normalized growth for COc1ccc(-c2oc3cc(OC)c(OC)c(OC)c3c(=O)c2OC)cc1
Out: 0.927

In: Entry under review: COC(=O)[C@H](c1ccccc1Cl)N1CCc2sccc2C1 . Reported normalized growth?
Out: 0.992

In: Which value of normalized growth has been reported for C[C@@H]1CC2C3CCC4=CC(=O)C=C[C@]4(C)[C@@]3(F)[C@@H](O)C[C@]2(C)[C@@]1(O)C(=O)CO (stereo partly specified) in the records?
Out: 1.01

In: Item COC1C=CC23c4cc5c(cc4CN(CC2O)[C@@H]3C1)OCO5 (stereo partly specified) has what recorded normalized growth?
Out: 0.99

In: For the molecule shown here, COc1ccc2oc3ccccc3c(=O)c2c1 , give the reported normalized growth.
Out: 0.772

In: GET /values?readout=normalized growth&item= COC(=O)/C(C)=C\CC12OC(C)(C)C3CC(C=C4C(=O)c5c(OC)c6c(c(CC=C(C)C)c5OC431)OC(C)(CCC=C(C)C)C=C6)C2=O (stereo unspecified)
Out: 0.995

In: Can you look up the measured normalized growth of O=C(O)C1CCCNC1 (stereo unspecified) for me?
Out: 1.02

In: Could you tell me which normalized growth is on file for C=NC(C(=O)NC1C(=O)N2C1SC(C)(C)C2C(=O)O)c1ccccc1 (stereo unspecified) ?
Out: 1

In: Item CC(C)=CC1C(C(=O)OCc2cccc(Oc3ccccc3)c2)C1(C)C (stereo unspecified) has what recorded normalized growth?
Out: 0.995

In: I would be grateful if you could share the reported normalized growth for c1ccc2c(CC3=NCCN3)cccc2c1 .
Out: 0.988

In: Given the entry CC(=O)C1CC[C@H]2C3CC[C@H]4C[C@H](O)CC[C@]4(C)C3CC[C@]12C (stereo partly specified) , report its measured normalized growth.
Out: 0.986
